Reference for the values: the supplement of paper PMC6089552

Test system: A673/TR/shEF
Assay: cell viability (LOESS-normalised, relative to median of negative controls) (log2 ratio); higher = more viable cells (less compound effect), active = hit call of the paper (over 3 MAD below the median)
Settings: 2.5 µM; library screen: screen1; EWS-FLI1 expression: high (no doxycycline); treatment time: 72 h
The whole screen tested about 3,200 compounds, of which about 300 (9.4%) showed activity. Only a selection was taken, and actives are over-represented in it overall.
Possible outcomes: active, inactive

# compound, system, label-value
rows = [
    ("NCC(CC(=O)O)c1ccc(Cl)cc1 (centres undefined)", "A673/TR/shEF", "inactive"),
    ("CCOCN(C(=O)CCl)c1c(C)cccc1CC", "A673/TR/shEF", "inactive"),
    ("CC(=O)CC1CCCCN1 (centres undefined)", "A673/TR/shEF", "inactive"),
    ("CN[C@@H]1C[C@H]2O[C@@](C)([C@@H]1OC)n1c3ccccc3c3c4c(c5c6ccccc6n2c5c31)C(=O)NC4", "A673/TR/shEF", "active"),
    ("CC(Cc1ccc(O)cc1)NCC(O)c1cc(O)cc(O)c1 (centres undefined)", "A673/TR/shEF", "inactive"),
    ("Cc1ccc2cc3c(ccc4ccccc43)c3c2c1CC3", "A673/TR/shEF", "inactive"),
    ("CN1Cc2c(ccc3c2OCO3)[C@@H]2[C@H]1c1cc3c(cc1C[C@@H]2O)OCO3", "A673/TR/shEF", "inactive"),
    ("C[N+]1=Cc2cc3c(cc2CC1)OCO3", "A673/TR/shEF", "inactive"),
    ("COc1cc(OC)c2c(c1)OC(c1ccc(OC)c(OC)c1)C(O)C2 (centres undefined)", "A673/TR/shEF", "inactive"),
    ("CC1(C)C(C=C(Cl)Cl)C1C(=O)OC(C#N)c1cccc(Oc2ccccc2)c1 (centres undefined)", "A673/TR/shEF", "inactive"),
    ("O=P(O)(O)Cc1ccccc1", "A673/TR/shEF", "active"),
    ("CC(N)Cc1ccc(O)cc1 (centres undefined)", "A673/TR/shEF", "inactive"),
    ("CCCN(CCC)c1c([N+](=O)[O-])cc(C(F)(F)F)cc1[N+](=O)[O-]", "A673/TR/shEF", "inactive"),
    ("Cc1nccc2c1[nH]c1ccccc12", "A673/TR/shEF", "inactive"),
    ("CCN1C[C@]2(COC)[C@H](O)C[C@H](OC)[C@]34C1[C@H]([C@H](OC)[C@H]23)[C@]1(OC(C)=O)[C@H]2[C@@H](OC(=O)c3ccccc3)[C@](O)(C[C@H]24)[C@@H](OC)[C@@H]1O", "A673/TR/shEF", "inactive"),
    ("CC(=O)O[C@H]1C[C@@H](OC(C)=O)C(C)(C)C2C[C@@H](OC(C)=O)[C@]3(C)C(CC[C@@]4(C)[C@H](c5ccoc5)C[C@H]5O[C@]543)[C@]21C (some centres undefined)", "A673/TR/shEF", "inactive"),
    ("CC(C)CC(NC(=O)C(Cc1ccccc1)NC(=O)CNC(=O)CNC(=O)C(N)Cc1ccc(O)cc1)C(=O)O (centres undefined)", "A673/TR/shEF", "inactive"),
    ("CC1(C)C2C[C@@H](O)[C@]3(C)C(CC[C@@]4(C)[C@H](c5ccoc5)OC(=O)[C@H]5O[C@]543)[C@@]2(C)[C@@H](O)C[C@H]1O (some centres undefined)", "A673/TR/shEF", "inactive"),
    ("CCc1cccc(CC)c1N(COC)C(=O)CCl", "A673/TR/shEF", "inactive"),
    ("CC(C)N(CCC(C(N)=O)(c1ccccc1)c1ccccn1)C(C)C (centres undefined)", "A673/TR/shEF", "inactive"),
    ("CN[C@@H]1[C@@H](O)[C@@H](O[C@@H]2[C@@H](O)[C@H](O[C@H]3O[C@H](CN)CC[C@H]3N)[C@@H](N)C[C@H]2N)OC[C@]1(C)O", "A673/TR/shEF", "inactive"),
    ("c1ccc2c(c1)sc1ccccc12", "A673/TR/shEF", "inactive"),
    ("CC(=O)O[C@H]1C[C@@H](OC(C)=O)C(C)(C)C2C[C@@H](OC(C)=O)[C@]3(C)C(CC[C@@]4(C)[C@H](c5ccoc5)C(=O)[C@H]5O[C@]543)[C@]21C (some centres undefined)", "A673/TR/shEF", "inactive"),
    ("COc1cc([C@@H]2c3cc4c(c(O)c3C[C@H]3COC(=O)[C@@H]32)OCO4)cc(OC)c1OC", "A673/TR/shEF", "active"),
    ("CC1=C(O)C(=O)C=C2C1=CC=C1[C@@]2(C)CC[C@@]2(C)[C@@H]3C[C@](C)(C(=O)O)CC[C@]3(C)CC[C@]12C", "A673/TR/shEF", "active"),
    ("CN1C2CC3CC1[C@H](O)C2O3 (some centres undefined)", "A673/TR/shEF", "inactive"),
    ("c1ccc2c(c1)[nH]c1cnccc12", "A673/TR/shEF", "inactive"),
    ("C[C@]12CCC3C(CC[C@H]4C[C@@H](Cl)CC[C@]34C)C1CCC2=O (some centres undefined)", "A673/TR/shEF", "inactive"),
    ("COC(=O)/C=C(\\C)OP(=O)(OC)OC", "A673/TR/shEF", "inactive"),
    ("COC[C@H]1OC(=O)c2coc3c2[C@@]1(C)C1=C(C3=O)[C@@H]2CCC(=O)[C@@]2(C)C[C@H]1OC(C)=O", "A673/TR/shEF", "active"),
    ("COc1cc([C@@H]2c3cc4c(cc3[C@H](OC(C)=O)[C@H]3COC(=O)[C@H]23)OCO4)cc(OC)c1OC", "A673/TR/shEF", "active"),
    ("C=C1C([C@]2(C)C(CC(=O)OC)[C@@](C)(COC(C)=O)OC(=O)C[C@@H]2OC(C)=O)[C@@H](OC=O)[C@H](OC(=O)C(OC(C)=O)C(C)CC)[C@@]2(C)[C@H](c3ccoc3)CC(=O)C12O (some centres undefined)", "A673/TR/shEF", "inactive"),
    ("C[C@H]1C(=O)O[C@@H]2CCN3CC=C(COC(=O)[C@](C)(O)[C@]1(C)O)[C@H]23", "A673/TR/shEF", "inactive"),
    ("N#C/C(=C\\c1ccc(O)cc1)C(=O)O", "A673/TR/shEF", "inactive"),
    ("C/C=C(/C)C(=O)O[C@H]1CC[C@@]2(C)[C@@H]3CC[C@H]4[C@]5(O)C[C@H](O)[C@@]6(O)[C@@H](CN7C[C@@H](C)CC[C@H]7[C@@]6(C)O)[C@]5(O)C[C@@]42O[C@]13O", "A673/TR/shEF", "inactive"),
    ("COc1cc([C@@H]2c3cc4c(cc3[C@H](O)[C@H]3COC(=O)[C@@H]23)OCO4)cc(OC)c1OC", "A673/TR/shEF", "active"),
    ("O=C(O)COc1ccc(Cl)cc1Cl", "A673/TR/shEF", "inactive"),
    ("CNC(=O)O/N=C/C(C)(C)SC", "A673/TR/shEF", "inactive"),
    ("c1ccc2c3c([nH]c2c1)CNCC3", "A673/TR/shEF", "inactive"),
]

====

Measured cell viability (log2) by item
Tested on: A673/TR/shEF
Test: cell viability (LOESS-normalised, relative to median of negative controls) (log2 ratio); higher = more viable cells (less compound effect), active = hit call of the paper (over 3 MAD below the median)
Settings: 8.3 µM; library screen: screen3; EWS-FLI1 expression: high (no doxycycline); treatment time: 72 h
Hit rate of the full screen: of about 3,200 compounds, about 300 (9.4%) showed activity. What follows is part of a selection rich in actives, with near analogues and random picks from the rest.
measurement-name: cell viability (log2)

# compound, measurement-name, endpoint-value
measured = [
    ("C[C@]12CC[C@H](O)CC1=CC[C@@H]1[C@@H]2CC[C@]2(C)C(=O)CC[C@@H]12", "cell viability (log2)", 0.0125),
    ("Cc1cccc(C)c1NC(=O)CN1CCCC1=O", "cell viability (log2)", 0.15),
    ("CN1[C@@H]2CC[C@H]1CC(OC(=O)C(CO)c1ccccc1)C2 (stereo not given in full)", "cell viability (log2)", -0.0414),
    ("O=C(OC1CC2CCC(C1)[N+]21CCCC1)C(O)(c1ccccc1)c1ccccc1 (stereo not given)", "cell viability (log2)", 0.022),
    ("COP(=S)(OC)SCn1nnc2ccccc2c1=O", "cell viability (log2)", -0.267),
]
